target: UniProt P31422; test: Antagonist activity against Metabotropic glutamate receptor 3 expressed in CHO cells was evaluated in presence of 30 uM glutamic acid; type: functional, cell-based
Sequence (P31422 whole entry): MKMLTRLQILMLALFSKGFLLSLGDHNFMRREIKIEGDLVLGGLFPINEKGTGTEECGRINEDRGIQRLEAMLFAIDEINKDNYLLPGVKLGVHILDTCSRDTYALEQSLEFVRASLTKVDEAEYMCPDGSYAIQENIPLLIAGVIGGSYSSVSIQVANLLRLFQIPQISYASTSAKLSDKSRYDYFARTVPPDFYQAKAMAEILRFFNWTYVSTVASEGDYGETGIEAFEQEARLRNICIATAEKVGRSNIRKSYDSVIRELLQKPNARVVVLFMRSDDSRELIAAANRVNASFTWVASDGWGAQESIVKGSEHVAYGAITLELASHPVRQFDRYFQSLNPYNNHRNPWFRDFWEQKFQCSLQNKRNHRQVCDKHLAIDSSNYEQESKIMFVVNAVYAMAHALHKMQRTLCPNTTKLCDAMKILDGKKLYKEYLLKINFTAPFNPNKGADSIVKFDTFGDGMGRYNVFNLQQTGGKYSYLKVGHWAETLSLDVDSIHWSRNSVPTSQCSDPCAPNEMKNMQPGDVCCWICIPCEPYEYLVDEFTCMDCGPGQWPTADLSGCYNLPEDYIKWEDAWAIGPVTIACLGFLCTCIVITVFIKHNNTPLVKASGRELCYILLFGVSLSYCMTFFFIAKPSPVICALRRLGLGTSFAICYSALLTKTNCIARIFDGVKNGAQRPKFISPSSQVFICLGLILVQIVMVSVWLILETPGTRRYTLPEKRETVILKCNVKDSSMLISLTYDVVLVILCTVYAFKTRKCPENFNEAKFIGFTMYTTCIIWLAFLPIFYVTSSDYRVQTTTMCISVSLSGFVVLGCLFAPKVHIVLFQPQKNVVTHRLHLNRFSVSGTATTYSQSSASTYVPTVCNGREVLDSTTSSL
pEC50: −log10 of the molar value.
Would you mind telling me the reported pEC50 of each entry?

# count of solved cases: 2
{"COMPOUND": "N[C@@]1(C(=O)O)CC[C@@H]2[C@H]1[C@@]2(F)C(=O)O (stereo in doubt; (-)-11)", "pEC50": "< 4.00"}
{"COMPOUND": "N[C@]1(C(=O)O)[C@H]2[C@@H](C[C@@H]1F)[C@@H]2C(=O)O", "pEC50": "< 4.00"}

// below: pEC50 requested for another compound
Query block: Read off the recorded pEC50 for N[C@@]1(C(=O)O)CC(=O)[C@@H]2[C@H]1[C@@]2(F)C(=O)O (stereo in doubt; (+)-14)
Result block: < 4.00
